- target_or_system: Mitogen-activated protein kinase kinase kinase 8 (Homo sapiens, UniProt P41279)
- Sequence (P41279 whole entry): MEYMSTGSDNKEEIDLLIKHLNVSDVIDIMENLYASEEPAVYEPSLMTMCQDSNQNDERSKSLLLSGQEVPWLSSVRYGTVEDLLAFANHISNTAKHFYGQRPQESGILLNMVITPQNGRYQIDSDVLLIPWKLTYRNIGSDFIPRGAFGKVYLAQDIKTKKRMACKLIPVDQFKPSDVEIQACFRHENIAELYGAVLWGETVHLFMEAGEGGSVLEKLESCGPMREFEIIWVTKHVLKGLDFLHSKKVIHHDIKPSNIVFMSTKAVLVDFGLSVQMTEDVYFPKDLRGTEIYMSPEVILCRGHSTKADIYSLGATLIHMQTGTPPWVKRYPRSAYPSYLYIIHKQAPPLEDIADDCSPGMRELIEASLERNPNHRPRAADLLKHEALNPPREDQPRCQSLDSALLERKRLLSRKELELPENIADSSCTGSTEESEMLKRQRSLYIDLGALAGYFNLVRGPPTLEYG
- assay_notes: Inhibition of human recombinant COT by HTRF-based assay
Please note: IC50 exactly at 200 nM is Not met. Only values below 200 nM get Met.

Illustrative cases are given below, each with its answer.
# mol, target_or_system, label
records = [
    ("Clc1ccccc1-c1ccc(Oc2cncc3sc(-c4nn[nH]n4)cc23)cc1", "Mitogen-activated protein kinase kinase kinase 8 (Homo sapiens, UniProt P41279)", "Met"),
    ("N#Cc1ccc(-c2ccc(Oc3cncc4sc(-c5nn[nH]n5)cc34)cc2)cc1", "Mitogen-activated protein kinase kinase kinase 8 (Homo sapiens, UniProt P41279)", "Not met"),
    ("OCc1ccc(-c2ccc(Oc3cncc4sc(-c5nnn[nH]5)cc34)cc2)cc1", "Mitogen-activated protein kinase kinase kinase 8 (Homo sapiens, UniProt P41279)", "Met"),
    ("O=C(O)c1cc2c(Oc3ccc(I)cc3)cncc2s1", "Mitogen-activated protein kinase kinase kinase 8 (Homo sapiens, UniProt P41279)", "Not met"),
    ("O=C(NO)c1cc2c(Oc3ccc(I)cc3)cncc2s1", "Mitogen-activated protein kinase kinase kinase 8 (Homo sapiens, UniProt P41279)", "Not met"),
]

INPUT: Answer whether the compound Fc1ccc(-c2ccc(Oc3cncc4sc(-c5nn[nH]n5)cc34)cc2)cc1 has IC50 strictly less than 200 nM
OUTPUT: Met

INPUT: Now consider CC(C)(C)c1ccc(Oc2cncc3sc(-c4nn[nH]n4)cc23)cc1 and answer again.
OUTPUT: Not met
